- Tested on: rats
- assay_notes: cocaine discrimination (2-lever operant), i.p. administration
- stated_conditions: Rattus norvegicus, ip, read-out: % cocaine lever responding
result_type: responders at 5 mg/kg (%)
// note: answer is a bare numeric in %

Sure, the documented responders at 5 mg/kg for CCN(CC)C(C)C(=O)c1cccc(Cl)c1 (stereo not shown) is 1

Sure, the documented responders at 5 mg/kg for CC(C(=O)c1cccc(Cl)c1)N(C)C (stereo not shown) is 0

Sure, the documented responders at 5 mg/kg for CCCC(NC(C)(C)C)C(=O)c1cccc(Cl)c1 (stereo not shown) is 1

Sure, the documented responders at 5 mg/kg for CC(NC1CCCC1)C(=O)c1cccc(Cl)c1 (stereo not shown) is 2

Sure, the documented responders at 5 mg/kg for CC(NC(C)(C)C)C(=O)c1cccc(Br)c1 (stereo not shown) is 1

Sure, the documented responders at 5 mg/kg for CCCCCC(NC(C)(C)C)C(=O)c1cccc(Cl)c1 (stereo not shown) is 0

Sure, the documented responders at 5 mg/kg for CC(NC1CC1)C(=O)c1cccc(Cl)c1 (stereo not shown) is 6

Sure, the documented responders at 5 mg/kg for CCCC(NC(C)(C)C)C(=O)c1ccc(Cl)c(Cl)c1 (stereo not shown) is 1

Sure, the documented responders at 5 mg/kg for CC(NC(C)(C)C)C(=O)c1ccccc1 (stereo not shown) is 3

Sure, the documented responders at 5 mg/kg for CC(NC(C)(C)C)C(=O)c1cccc(F)c1 (stereo not shown) is 1
